# TEST_DESCRIPTION: resazurin metabolic signal in A549 cells – cell-based, resazurin fluorescence, 24 h, PK04 Diversity Set, profiling panel (AID 1171); further: test concentration not given here
# CONDITION_INFO: A549 viability, higher = more signal, called active from +8 up or from −8 down
PROPERTY_NAME: z-score
Answers are plain numbers.

| MOL | z-score |
| --- | --- |
| COC(=O)[C@@]1(Cc2ccc(F)cc2)[C@H]2c3cc(C(=O)N(C)C)n(Cc4ccccn4)c3C[C@H]2CN1C(=O)c1ccccc1 | 0.45 |
| C/C=C/[C@H](CCn1cc([C@H](O)c2ccccc2)nn1)[Si](C)(C)c1ccc(OC)cc1 | 0.22 |
| NC(=O)[C@@]1(CCS(=O)(=O)c2ccccc2)N=C(c2ccc(OCCCO)cc2)O[C@H]1c1ccccc1 | 0.798 |
| CCCC[C@H]1C[C@@H]1[C@@H]1N(P(=O)(c2ccccc2)c2ccccc2)[C@](CO)(c2ccccc2)CC12CC2 | 0.936 |
| COC(=O)c1c2oc(c1C(=O)OC)C(=O)N[C@H](Cc1ccccc1)Cn1nncc1C1(CCCCC1)NC(=O)N[C@H](CO)CC2 | 0.286 |
| O=C1[C@H]2C=C(Br)[C@H](C[C@@H]2OCCOCCO)[C@@]12CO2 | -0.274 |

Consider the following items and state reported z-score for each.
1. CO[C@H]1O[C@H](CO)[C@@H](OC(=O)Nc2ccc3c(c2)OCO3)[C@H](OC(=O)Nc2ccc3c(c2)OCO3)[C@H]1OC(=O)Nc1ccc2c(c1)OCO2
2. C[N+](C)(C)CCCCNC(=O)[C@H]1C[C@H]2C(=O)N3CCC[C@H]3C(=O)N2[C@H]1c1ccc(O)cc1

a:
1: 0.38; 2: 0.0558

Numbers sourced from PubChem BioAssay.
